- SUBJECT OF TEST: T1, human VISTA (human, UniProt Q9H7M9 33-194, limits assumed)
- T1 construct: The ELISA text says only recombinant VISTA; also called recombinant VISTA
- PROCEDURE DETAILS: method not stated (Table 1, column Kd, M)
OUTCOME MEASURE: pKd
Please note pKd is a logarithmic value: minus log10 of concentration in mol/L. Answer with that number alone.

In plain terms, VSTB65 (antibody, V domains shown) VH: QVQLVQSGAEVKKPGASVKVSCKASGYTFTSYWIHWVRQAPGQGLEWMGEINPSNGLTNYNEKFRNRVTMTRDTSTSTVYMELSSLRSEDTAVYYCARSYDYDGDYYAMDYWGQGTLVTVSS VL: DIVMTQSPLSLPVTPGEPASISCRSTQSIVHSNGNTYLEWYLQKPGQSPQLLIYKVSNRFSGVPDRFSGSGSGTDFTLKISRVEAEDVGVYYCFQASHVPWTFGQGTKLEIKR has a documented pKd of 8.97

Record summary for VSTB116 (antibody, V domains shown) VH: QVQLVQSGAEVKKPGSSVKVSCKASGGTFSSYAISWVRQAPGQGLEWMGGIIPIFGTANYAQKFQGRVTITADESTSTAYMELSSLRSEDTAVYYCARSSYGWSYEFDYWGQGTLVTVSS VL: DIQMTQSPSSLSASVGDRVTITCRASQSINTNLNWYQQKPGKAPKLLIYAASSLQSGVPSRFSGSGSGTDFTLTISSLQPEDFATYYCQQARDTPITFGQGTKVEIKR : reported pKd = 9.67

Sure, the documented pKd for VSTB114 (antibody, V domains shown) VH: QVQLVQSGAEVKKPGSSVKVSCKASGGTFSSYAISWVRQAPGQGLEWMGGIIPIFGTANYAQKFQGRVTITADESTSTAYMELSSLRSEDTAVYYCARHSIGWVAELDYWGQGTLVTVSS VL: DIQMTQSPSSLSASVGDRVTITCRASQSIATSLNWYQQKPGKAPKLLIYYASSLQSGVPSRFSGSGSGTDFTLTISSLQPEDFATYYCQQGAYYPLTFGQGTKVEIKR is 9.82
